The measurements presented in this section are drawn from patent US20160257697A1.

Tested on: HCV replicon 1AY93H
assay.text: microbe, parasite or virus in culture
Type: cell-based, Hepatitis C virus (HCV)
protocol.conditions: read-out: 1A Y93H IC50; HCV replicon 1A Y93H; Replicon Assay A
quantity.kind: IC50 (nM)

{"molecule": "COC(=O)NC(C(=O)N1CCC[C@H]1c1ncc(-c2ccc3c(c2)cc2n3C(c3ccc(C4CCCC4)s3)Oc3cc(-c4cnc([C@@H]5CCCN5C(=O)[C@@H](NC(=O)OC)C(C)C)[nH]4)cc(F)c3-2)[nH]1)C1C[C@@H](C)O[C@@H](C)C1 (single isomer, unassigned) [Compound 658]", "obs.value": 0.0089}
{"molecule": "COC(=O)N[C@H](C(=O)N1CCC[C@H]1c1ncc(-c2ccc3c(c2)OC(c2cc4ccccc4s2)n2c-3cc3cc(-c4cnc([C@@H]5C[C@H]6C[C@H]6N5C(=O)[C@@H](NC(=O)OC)C(C)C)[nH]4)ccc32)[nH]1)C(C)C (single isomer, unassigned) [Compound 609]", "obs.value": 18}

====

Test system: HCV replicon 1A
assay.text: microbe, parasite or virus in culture
Type: cell-based, Hepatitis C virus (HCV)
protocol.conditions: HCV replicon 1A; Replicon Assay A
Below: a set of entries, each annotated with reported IC50.

{"compound": "COC(=O)N[C@H](C(=O)N1CCC[C@H]1c1ncc(-c2cc(C)c3c(c2)OC(c2ccc(C4CC4)s2)n2c-3cc3cc(-c4cnc([C@@H]5C[C@H]6C[C@H]6N5C(=O)[C@@H](NC(=O)OC)C5CCOCC5)[nH]4)ccc32)[nH]1)C(C)C (single isomer, unassigned) [Compound 763]", "IC50 (pM)": 2.7}
{"compound": "COC(=O)N[C@H](C(=O)N1C2CC2C[C@H]1c1ncc(-c2cc(F)c3c(c2)OC(c2ccc(C4CC4)s2)n2c-3cc3cc(-c4cnc([C@@H]5CCCN5C(=O)[C@@H](NC(=O)OC)C5C[C@@H](C)O[C@@H](C)C5)[nH]4)ccc32)[nH]1)C(C)C (single isomer, unassigned) [Compound 557]", "IC50 (pM)": 3.1}
{"compound": "COC(=O)N[C@H](C(=O)N1CCC[C@H]1c1nc(-c2ccc3c(c2)OC(c2ccc(C)s2)n2c-3cc3cc(-c4c[nH]c([C@@H]5NCCN5C(=O)[C@@H](NC(=O)OC)C(C)C)n4)ccc32)c[nH]1)C(C)C (single isomer, unassigned) [Compound 701]", "IC50 (pM)": 3}

====

Test system: HCV replicon 2B
assay.text: microbe, parasite or virus in culture
Type: cell-based, Hepatitis C virus (HCV)
protocol.conditions: read-out: 2B IC50; HCV replicon 2B; Replicon Assay A
We begin with a simple list: items and their reported IC50.

{"molecule": "COC(=O)N[C@H](C(=O)N1CCC[C@H]1c1ncc(-c2cc(F)c3c(c2)OC(c2cc4c(s2)CCC4)n2c-3cc3cc(-c4cnc([C@@H]5CCCN5C(=O)[C@@H](NC(=O)OC)C5CCOCC5)[nH]4)ccc32)[nH]1)C(C)C (single isomer, unassigned) [Compound 622]", "IC50, nM": 0.0068}
{"molecule": "COC(=O)N[C@H](C(=O)N1CCC[C@H]1c1ncc(-c2cc(F)c3c(c2)OC(c2cc(C)c(C)s2)n2c-3cc3cc(-c4cnc([C@@H]5C[C@@H](F)CN5C(=O)[C@@H](NC(=O)OC)C(C)C)[nH]4)ccc32)[nH]1)C(C)C (single isomer, unassigned) [Compound 514]", "IC50, nM": 48.5}
